Hello, the source for this data is the RepoRT retention time repository (doi:10.1007/s00216-015-8540-6), in case you need it.

Measured LC retention time, listed per entry.
Test: Waters Atlantis T3, 100 × 2.1 mm, 3 µm, 0.1 mL/min, estimated dead time 2.2 min; A: water + 0.01% formic acid; B: methanol + 0.01% formic acid; gradient (min/%B) 0/5 3/5 20/100 29/100
Conditions: stereoisomer not certain

# compound, unit descriptor, LC retention time
rows = [
    ("CN1C2CCC1C(C(=O)O)C(OC(=O)c1ccccc1)C2 (centres undefined)", "min", 15.7),
    ("CN(C)C1C(=O)C(C(N)=O)=C(O)C2(O)C(=O)C3=C(O)c4c(O)cccc4C(C)(O)C3C(O)C12 (centres undefined)", "min", 14.8),
    ("CCC(=O)C(CC(C)N(C)C)(c1ccccc1)c1ccccc1 (centres undefined)", "min", 17.6),
    ("CN1CCN2c3ncccc3Cc3ccccc3C2C1 (centres undefined)", "min", 14.6),
    ("CCCCC(=O)N(Cc1ccc(-c2ccccc2-c2nn[nH]n2)cc1)C(C(=O)O)C(C)C (centres undefined)", "min", 24.4),
    ("CC(N)Cc1ccc2c(c1)OCO2 (centres undefined)", "min", 12.9),
    ("CCC(C(N)=O)N1CCCC1=O (centres undefined)", "min", 13.7),
    ("COc1cccc(C2(O)CCCCC2CN(C)C)c1 (centres undefined)", "min", 14.2),
    ("CC1CC2C(C(O)CC3(C)C2CCC3(O)C(=O)CO)C2(C)C=CC(=O)C=C12 (centres undefined)", "min", 21.4),
    ("CN(C)CCCN1c2ccccc2CCc2ccccc21", "min", 17.6),
    ("CCC(C)(C)C(=O)OC1CC(C)C=C2C=CC(C)C(CCC3CC(O)CC(=O)O3)C21 (centres undefined)", "min", 27.1),
    ("CC(C(=O)O)c1cccc(C(=O)c2ccccc2)c1 (centres undefined)", "min", 21.8),
    ("CC(N)Cc1ccccc1 (centres undefined)", "min", 12.6),
    ("COc1ccc2nc(S(=O)Cc3ncc(C)c(OC)c3C)[nH]c2c1 (centres undefined)", "min", 18.7),
]
